The measurements presented in this section are drawn from PubChem BioAssay (NCI).

System: RPMI-8226 leukemia
method_description: NCI-60 one-dose screen, 48 h (100 = growth as untreated, 0 = no growth, -100 = all killed)
condition_context: 10 µM unless noted
Compounds without any hit were thinned out: in the full panel of roughly 83,000, 20% have a hit.
This listing pairs compounds with measured growth.
reported_endpoint: growth (%)

- molecule: "Cc1ccc(-c2nc(C#N)c(S(=O)(=O)NCCO)o2)cc1"
  recorded_number: 1.81
- molecule: "O=C1/C=C/[C@@H](O)[C@@H]2C[C@@H](O)C[C@H]2/C=C/CCC[C@H](CCOCc2ccccc2)O1"
  recorded_number: 11.5
- molecule: "COc1ccc(C/C(C)=C(/c2ccc(OCCN3CCCCCC3)cc2)c2ccc(OC(=O)NCc3ccccc3)cc2)cc1"
  recorded_number: 52.8
- molecule: "CCN(CC)c1ccc(/C=N/NC(=O)c2ccc(Nc3ccnc(C(F)(F)F)c3)cc2)c(O)c1"
  recorded_number: 20
- molecule: "CC(=O)N(Cc1ccccc1)c1nc2ccc(O)c(CN(C)C)c2s1"
  recorded_number: 95.2
- molecule: "CCOC(=O)c1c(C)nc2ccccc2c1/C=C/c1ccc(OC)cc1"
  recorded_number: 41.8
- molecule: "COc1ccc2nc3cc(Cl)ccc3c(NCCN)c2c1"
  recorded_number: -23.6
- molecule: "CC1(C)CC[C@]2(C(=O)O)CC[C@]3(C)C(=CC[C@@H]4[C@@]5(C)C[C@@H](Cc6cn([C@@H]7O[C@H](CO)[C@@H](O)[C@H](O)[C@H]7O)nn6)[C@H](O)C(C)(C)[C@@H]5CC[C@]43C)[C@@H]2C1"
  recorded_number: 103
